Tested on: A549
Experiment: NCI tumour cell line growth inhibition, 48 h
The source made the active and inactive calls. Cut-off read from the data, not from the text of the source: active = GI50 up to about 1.1 µM and inactive = higher.
Field 'call' accepts 1 (active), 0 (inactive)

Before answering, review these 8 worked examples.
COMPOUND	ASSIGNED_CATEGORY
C=CCN1CCC23c4c5ccc(O)c4OC2C(=NN=C2CCC4(O)C6Cc7ccc(O)c8c7C4(CCN6CC=C)C2O8)CCC3(O)C1C5 (stereo not given)	0
CCOC(=O)NC(Nc1ccc(F)cc1)(C(=O)OCC)C(F)(F)F (stereo not given)	0
CC1CCc2c(c(CC3CC(=O)NC(=O)C3)nn2-c2ccccc2)C1 (stereo not given)	0
COc1cc(Br)c(CC2C3=C(CCN2C(=O)C2CCC2)CC(=O)CC3)cc1O (stereo not given)	0
CC(C(=O)c1ccccc1)C1(O)C(=O)Nc2ccc(Cl)cc21 (stereo not given)	0
C1=C(CC2=C[P+](c3ccccc3)(c3ccccc3)C=C(c3ccccc3)O2)OC(c2ccccc2)=C[P+]1(c1ccccc1)c1ccccc1	1
O=C(CCC(=O)C(C(=O)c1ccccc1)c1ccccc1)Nc1cccc(C(F)(F)F)c1 (stereo not given)	0
C=CC(c1ccccc1)[C@@]1(OC(C)=O)C(=O)C(=O)OC1C1COC(C)(C)O1 (stereo not given in full)	0

query: State the result this test recorded for O=C1NC(=O)C2C1N(Cc1ccccc1)C(=O)N2Cc1ccccc1 (stereo not given) .
result: 0

query: State the result this test recorded for C=Cc1ccc(C)[n+](C[Si](C)(C)O[Si](C)(C)C[n+]2cc(C=C)ccc2C)c1 .
result: 0

query: State the result this test recorded for Oc1cccnc1/C=N/OCc1ccccc1 .
result: 0

query: State the result this test recorded for Cc1ccc(S(=O)(=O)N2CC(CCN)c3ccccc32)cc1 (stereo not given) .
result: 0

query: State the result this test recorded for CC1=NN=C(N)N/C1=C\C(Sc1ccc(Cl)cc1)c1ccc([N+](=O)[O-])cc1 (stereo not given) .
result: 0

query: State the result this test recorded for CNC(=O)N1CCN(C(=O)NC)CCN(C(=O)NC)CC1 .
result: 0

query: State the result this test recorded for O=C1N/C(=N/N=C/c2ccccc2)N/C1=C\c1cccs1 .
result: 0

query: State the result this test recorded for Cc1c2cnccc2c(C)c2c1c1ccccc1n2CCCCCCNCc1ccccc1 .
result: 0

query: State the result this test recorded for CC(=O)/C=C/C=C(\C)CC/C=C(\C)CC(C)C .
result: 0
